test.system: UniProt P31645
assay.method.text: fluorescence-based serotonin uptake assay (Tsuruda et al. 2010)
Format: cell-based
Sequence (P31645 whole entry, species assumed): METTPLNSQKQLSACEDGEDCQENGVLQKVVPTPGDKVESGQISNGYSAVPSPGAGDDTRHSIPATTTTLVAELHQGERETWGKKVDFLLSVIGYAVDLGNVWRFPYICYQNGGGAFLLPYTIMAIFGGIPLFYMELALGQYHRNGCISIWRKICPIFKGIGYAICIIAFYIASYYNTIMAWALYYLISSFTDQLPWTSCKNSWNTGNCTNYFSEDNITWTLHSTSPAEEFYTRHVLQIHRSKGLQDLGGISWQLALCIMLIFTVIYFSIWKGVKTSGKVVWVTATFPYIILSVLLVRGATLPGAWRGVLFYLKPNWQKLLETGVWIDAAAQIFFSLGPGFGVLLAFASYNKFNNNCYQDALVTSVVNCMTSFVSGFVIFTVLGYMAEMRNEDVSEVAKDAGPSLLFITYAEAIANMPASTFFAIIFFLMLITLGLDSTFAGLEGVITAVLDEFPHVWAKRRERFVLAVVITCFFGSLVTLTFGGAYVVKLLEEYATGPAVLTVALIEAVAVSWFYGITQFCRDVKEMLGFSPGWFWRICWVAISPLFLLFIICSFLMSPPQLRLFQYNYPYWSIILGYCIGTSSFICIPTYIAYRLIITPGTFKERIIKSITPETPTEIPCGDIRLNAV
measurement.label: IC50

Please give the measured IC50 for this molecule: CCOC[C@@H](Oc1ccc(C#N)c(Cl)c1)[C@@H]1CCNC1 (stereo in doubt) [Example 7-25]
≤ 10 nM

---

test.system: NET (Homo sapiens, UniProt P23975)
Sequence (P23975 whole entry): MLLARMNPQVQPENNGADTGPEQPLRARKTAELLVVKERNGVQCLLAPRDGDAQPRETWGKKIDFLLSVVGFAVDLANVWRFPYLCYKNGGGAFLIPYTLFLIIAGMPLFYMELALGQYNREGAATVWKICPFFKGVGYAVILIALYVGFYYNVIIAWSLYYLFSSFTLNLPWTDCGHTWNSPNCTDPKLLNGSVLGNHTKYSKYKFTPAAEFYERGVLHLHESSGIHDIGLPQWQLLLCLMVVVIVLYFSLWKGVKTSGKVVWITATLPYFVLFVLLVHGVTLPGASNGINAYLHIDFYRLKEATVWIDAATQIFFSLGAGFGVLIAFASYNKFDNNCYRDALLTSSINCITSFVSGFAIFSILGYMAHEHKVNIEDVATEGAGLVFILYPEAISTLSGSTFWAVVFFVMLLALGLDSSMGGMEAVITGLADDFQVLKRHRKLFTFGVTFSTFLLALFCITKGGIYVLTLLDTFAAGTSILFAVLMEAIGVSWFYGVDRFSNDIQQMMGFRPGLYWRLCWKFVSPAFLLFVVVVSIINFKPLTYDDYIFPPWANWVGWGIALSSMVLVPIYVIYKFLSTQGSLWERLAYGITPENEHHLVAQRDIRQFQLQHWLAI
assay.method.text: hNET membrane radioligand binding assay (3H-nisoxetine)
Parameters: expressed in transfected cells; host or cells: HEK-293
condition.details: hNET membranes (HEK-293), 1.0 nM 3H-nisoxetine; read-out: NET pKi (converted)
Measured Ki by item

| compound | measurement.label | result |
| --- | --- | --- |
| Clc1ccccc1O[C@@H](C1CCOCC1)[C@H]1CCNC1 [Example 13-1] | Ki | ≤ 10 nM |

Please give the measured Ki for this compound: COC[C@@H](Oc1cccc(Cl)c1Cl)[C@H]1CCNC1 [Example 4-9]
≤ 10 nM

Please give the measured Ki for this compound: CC(C)OC[C@H](Oc1ccc(Cl)cc1Cl)[C@@H]1CCNC1 [Example 9-22]
≤ 1000 nM

Please give the measured Ki for this compound: Clc1cccc(Cl)c1O[C@H](C1CCOCC1)[C@@H]1CCNC1 [Example 13-26]
≤ 10 nM

---

Measured Ki by item
test.system: SERT (Homo sapiens, UniProt P31645)
assay.method.text: hSERT membrane radioligand binding assay (3H-citalopram)
Design: expressed in transfected cells; host or cells: HEK-293
condition.details: hSERT membranes (HEK-293), 1.0 nM 3H-citalopram; read-out: SERT pKi (converted)
Sequence (P31645 whole entry): as the sequence (P31645 whole entry, species assumed) above

| molecule | Ki |
| --- | --- |
| COC[C@H](Oc1ccc(Cl)cc1Cl)[C@H]1CCNC1 | ≤ 0.01 µM |

Give Ki (SERT (Homo sapiens, UniProt P31645)) of the following molecule: `CC(C)OC[C@H](Oc1c(Cl)cccc1Cl)[C@@H]1CCNC1`
≤ 1 µM

Give Ki (SERT (Homo sapiens, UniProt P31645)) of the following molecule: `Fc1cccc(O[C@@H](C2CCOCC2)[C@@H]2CCNC2)c1Cl`
≤ 0.01 µM

Give Ki (SERT (Homo sapiens, UniProt P31645)) of the following molecule: COCC(Oc1cccc(Cl)c1Cl)C1CCNC1 (stereo not drawn)
≤ 0.01 µM

Give Ki (SERT (Homo sapiens, UniProt P31645)) of the following molecule: `Clc1ccc(O[C@H](C2CCOCC2)[C@@H]2CCNC2)cc1`
≤ 0.01 µM

---

test.system: NET (Homo sapiens)
assay.method.text: fluorescence-based norepinephrine uptake assay (Tsuruda et al. 2010)
Assay type: cell-based
condition.details: norepinephrine reuptake inhibition, fluorescence-based assay (data indicated by an asterisk); read-out: NET pIC50 (converted)
measurement.label: IC50

| molecule | IC50 |
| --- | --- |
| CCOC[C@H](Oc1ccc(F)cc1)[C@H]1CCNC1 | ≤ 100 nM |

Give IC50 (NET (Homo sapiens)) of the following molecule: `CCOC[C@H](Oc1cccc(Cl)c1C)[C@H]1CCNC1`
≤ 10 nM

Give IC50 (NET (Homo sapiens)) of the following molecule: `CC(C)SC[C@@H](Oc1cccc(Cl)c1C(F)(F)F)[C@H]1CCNC1`
≤ 10 nM

Give IC50 (NET (Homo sapiens)) of the following molecule: `CC(C)OC[C@H](Oc1ccc(Cl)cc1Cl)[C@@H]1CCNC1`
≤ 1000 nM

Give IC50 (NET (Homo sapiens)) of the following molecule: `CCSC[C@H](Oc1cccc(Cl)c1C(F)(F)F)[C@H]1CCNC1`
≤ 10 nM

Give IC50 (NET (Homo sapiens)) of the following molecule: Cc1cc(Cl)ccc1O[C@H](CO)[C@@H]1CCNC1 (stereo in doubt)
≤ 10 nM

Give IC50 (NET (Homo sapiens)) of the following molecule: `CC(C)OC[C@@H](Oc1ccc(Cl)cc1Cl)[C@H]1CCNC1`
≤ 100 nM

Give IC50 (NET (Homo sapiens)) of the following molecule: `CCOC[C@H](Oc1cccc(Cl)c1C(F)(F)F)[C@H]1CCNC1`
≤ 10 nM

Give IC50 (NET (Homo sapiens)) of the following molecule: `CCOC[C@H](Oc1ccc(Cl)c(F)c1)[C@H]1CCNC1`
≤ 10 nM

Give IC50 (NET (Homo sapiens)) of the following molecule: `CCOC[C@H](Oc1ccc(Cl)cc1F)[C@H]1CCNC1`
≤ 10 nM

Give IC50 (NET (Homo sapiens)) of the following molecule: Clc1cccc(Cl)c1OC(COCc1ccccc1)C1CCNC1 (stereo not drawn)
≤ 10 nM

Give IC50 (NET (Homo sapiens)) of the following molecule: `CCOC[C@H](Oc1c(F)ccc(F)c1Cl)[C@H]1CCNC1`
≤ 10 nM
